Where do the numbers come from? From ChEMBL document CHEMBL1128712.

So I've got a bunch of molecules here, and I need their logD values.
Assay: Partition coefficient (logD7.5)
Format: physicochemical
Settings: octanol/water, pH 7.5

Example entries begin here.
smilesData | logD
CCNC(=O)c1ccc(S(N)(=O)=O)cc1 | 0.176
CCN(CC)C(=O)c1ccc(S(N)(=O)=O)cc1 | 0.929

Would you mind listing logD for each of the following molecules?
1. NS(=O)(=O)c1ccc(CNC(=O)CC2CCCCC2)cc1
2. CC(C)CCC(=O)NCc1ccc(S(N)(=O)=O)cc1
3. NS(=O)(=O)c1ccc(C(=O)NCC(F)(F)C(F)(F)F)cc1

Reply:
[1.62, 1.04, 1.52]

Ask: Request the reported logD associated with CC(C)(C)CC(=O)NCc1ccc(S(N)(=O)=O)cc1
Reply: 1.04

====

Assay: Partition coefficient (logD7.5)
Assay type: physicochemical
Conditions: octanol/water, pH 7.5
Mark each entry yes (1) if its logD sits below 2, and no (0) for all others.

smilesData | answerLabel
NS(=O)(=O)c1ccc(CNC(=O)CC2CCCC2)cc1 | yes (1)

Ask: Does CCCCCCCC(=O)NCc1ccc(S(N)(=O)=O)cc1 have logD strictly under 2?
Reply: yes (1)

Ask: Does NS(=O)(=O)c1ccc(CNC(=O)C2CCCCC2)cc1 have logD strictly under 2?
Reply: yes (1)

Ask: Does CC1(C)C(C(=O)NCc2ccc(S(N)(=O)=O)cc2)C1(C)C have logD strictly under 2?
Reply: yes (1)

Ask: Does NS(=O)(=O)c1ccc(CNC(=O)C2CCCC2)cc1 have logD strictly under 2?
Reply: yes (1)

Ask: Does CCCCCCNC(=O)c1ccc(S(N)(=O)=O)cc1 have logD strictly under 2?
Reply: no (0)

====

Test: Evaluation of ionization constant between octanol and 20 mM phosphate buffer (pH =7.5)
Assay type: physicochemical
Conditions: octanol/20 mM phosphate buffer
So I've got a bunch of compounds here, and I need their pKa values.
One number for each entry.

smilesData | pKa
NS(=O)(=O)c1ccc(CNC(=O)C(F)(F)C(F)(F)F)cc1 | 9.8
CC(=O)NCc1ccc(S(N)(=O)=O)cc1 | 10.2
NS(=O)(=O)c1ccc(CNC(=O)C(F)(F)F)cc1 | 10.1

Then there is this compound:
Ask: Request the reported pKa associated with CCC(=O)NCc1ccc(S(N)(=O)=O)cc1
Reply: 9.9

====

So I've got a bunch of compounds here, and I need their logD values.
Experiment: Partition coefficient (logD7.5)
Format: physicochemical
Details: octanol/water, pH 7.5
Answers are plain numbers.

Example entries begin here.
compound | logD
CCCCCCC(=O)NCc1ccc(S(N)(=O)=O)cc1 | 1.46
NS(=O)(=O)c1ccc(CNC(=O)CCC2CCCC2)cc1 | 1.63
CCCCC(CC)C(=O)NCc1ccc(S(N)(=O)=O)cc1 (stereo not drawn) | 1.84
CCCN(CCC)C(=O)c1ccc(S(N)(=O)=O)cc1 | 2.08
CCC(CC)C(=O)NCc1ccc(S(N)(=O)=O)cc1 | 1

Would you mind listing logD for each of the following compounds?
1. NS(=O)(=O)c1ccc(CNC(=O)C2CCCCCC2)cc1
2. NS(=O)(=O)c1ccc(C(=O)NCC(F)(F)F)cc1
3. CCCNC(=O)c1ccc(S(N)(=O)=O)cc1
4. CCCC(C)CC(=O)NCc1ccc(S(N)(=O)=O)cc1 (stereo not drawn)

Reply:
1: 1.49; 2: 0.845; 3: 0.531; 4: 1.32

Would you mind listing logD for each of the following compounds?
1. CCCCCC(=O)NCc1ccc(S(N)(=O)=O)cc1
2. NS(=O)(=O)c1ccc(C(=O)NCC(F)(F)C(F)(F)C(F)(F)F)cc1
3. CCCCNC(=O)c1ccc(S(N)(=O)=O)cc1
4. CN(C)C(=O)c1ccc(S(N)(=O)=O)cc1

Reply:
1.23
2.04
1.11
0.146
